Ref: patent US20230278972A1

Test system: horseweed (Erigeron canadensis)
assay.method.text: Test A1 postemergence, horseweed
Type: in vivo
experimental.context: 31 g ai/ha, postemergence; 0 to 100 scale (0 no effect, 100 complete control)
For each entry below, report its Horseweed plant response rating value.
Please reply with the number alone, leaving off any unit.

## Task Item Cc1cc(C)c(C2=NOC3OCCCC23)cc1NS(=O)(=O)C(F)(F)F (centres unmarked) [Compound 372] with horseweed (Erigeron canadensis) - Horseweed plant response rating?
## Result 0

## Task Item CCOc1cccc2c1C(=O)N(c1cc(N(COC(=O)C(C)(C)C)S(=O)(=O)Cl)c(C)cc1C)C2 [Compound 414] with horseweed (Erigeron canadensis) - Horseweed plant response rating?
## Result 0

## Task Item COc1cccc2c1C(=O)N(c1cc(N(COC(=O)C(C)(C)C)S(=O)(=O)Cl)c(C)cc1C)C2 [Compound 413] with horseweed (Erigeron canadensis) - Horseweed plant response rating?
## Result 40

## Task Item Cc1cc(C)c(C2=NOC(C(C)C)C2)cc1NS(=O)(=O)C(F)(F)F (centres unmarked) [Compound 381] with horseweed (Erigeron canadensis) - Horseweed plant response rating?
## Result 0

## Task Item Cc1ccc(C2=NOC3CCCC23)cc1NS(=O)(=O)C(F)(F)F (centres unmarked) [Compound 377] with horseweed (Erigeron canadensis) - Horseweed plant response rating?
## Result 30

====

System: barnyardgrass (Echinochloa crus-galli)
assay.method.text: Test A preemergence, barnyardgrass
Type: in vivo
experimental.context: Preemergence, 500 g ai/ha; 0 to 100 scale (0 no effect, 100 complete control)
measured.attribute: Plant response rating, Barnyardgrass
Please reply with the number alone, leaving off any unit.

## Task Given "Cc1cc(C)c(C2=NOC3(CCSCC3)C2)cc1NS(=O)(=O)C(F)(F)F" , state its recorded Plant response rating, Barnyardgrass.
## Result 90

## Task Given "Cc1cc(F)c(C(=O)N2CCOCC2)cc1N(S(=O)(=O)C(F)(F)F)S(=O)(=O)C(F)(F)F" , state its recorded Plant response rating, Barnyardgrass.
## Result 30

## Task Given "Cc1cc(Cl)c(N(S(=O)(=O)C(F)(F)F)S(=O)(=O)C(F)(F)F)cc1C1=NOC2(CCCCC2)C1" , state its recorded Plant response rating, Barnyardgrass.
## Result 100

## Task Given "Cc1cc(Cl)c(C2=NOC(C)(C)C2)cc1NS(=O)(=O)C(F)(F)F" , state its recorded Plant response rating, Barnyardgrass.
## Result 100

====

System: ragweed (common ragweed, Ambrosia artemisiifolia)
assay.method.text: Test A preemergence, ragweed
Assay type: in vivo
experimental.context: Preemergence, 500 g ai/ha; visual injury on 0 to 100 scale (0 no effect, 100 complete control), approximately 10 days
For each entry below, report its Ragweed plant response rating value.
Please reply with the number alone, leaving off any unit.

## Task Given Cc1cc(F)c(C(=O)N2CCOCC2)cc1NS(=O)(=O)C(F)(F)F [Compound 240] , state its recorded Ragweed plant response rating.
## Result 50

## Task Given Cc1cc(C)c(N2CCC3(CCCC3)C2=O)cc1NS(=O)(=O)C(F)(F)F [Compound 270] , state its recorded Ragweed plant response rating.
## Result 80

## Task Given Cc1cc(C)c(N(S(=O)(=O)C(F)(F)F)S(=O)(=O)C(F)(F)F)cc1N1CC2(CCCCC2)OC1=O [Compound 269] , state its recorded Ragweed plant response rating.
## Result 90

## Task Given Cc1cc(Cl)c(C(=O)N(C)C)cc1NS(=O)(=O)C(F)(F)F [Compound 251] , state its recorded Ragweed plant response rating.
## Result 80

## Task Given Cc1cc(Cl)c(C(=O)N2CCOCC2)cc1N(S(=O)(=O)C(F)(F)F)S(=O)(=O)C(F)(F)F [Compound 250] , state its recorded Ragweed plant response rating.
## Result 90

## Task Given Cc1cc(F)c(C(=O)N2CCC(C#N)CC2)cc1N(S(=O)(=O)C(F)(F)F)S(=O)(=O)C(F)(F)F [Compound 239] , state its recorded Ragweed plant response rating.
## Result 70

## Task Given Cc1cc(C)c(N(S(=O)(=O)C(F)(F)F)S(=O)(=O)C(F)(F)F)cc1C(=O)N1CCC(Cl)CC1 [Compound 243] , state its recorded Ragweed plant response rating.
## Result 80
